# Test system: CHEAL Lambsquarters, Common
# METHOD DESCRIPTION: Preemergence herbicidal evaluation, CHEAL
# Type: in vivo, Chenopodium album, L.
# Set-up: scale not given here
# SETUP CONDITIONS: preemergence, rate 0.016 kg/ha
Reported CHEAL herbicidal rating values are given for each entry in this list.

{"MOLECULE": "Cc1ccc(O)cc1-n1nnc2cc(F)c(-n3c(=O)cc(C(F)(F)F)n(C)c3=O)cc21 [Example 32]", "CHEAL herbicidal rating": 0.0}
{"MOLECULE": "COc1ccc(-n2nnc3cc(F)c(-n4c(=O)cc(C(F)(F)F)n(C)c4=O)cc32)cc1 [Example 27]", "CHEAL herbicidal rating": 9.0}
{"MOLECULE": "C#CCOC(=O)COc1ccc(C)cc1-n1nnc2cc(F)c(-n3c(=O)cc(C(F)(F)F)n(C)c3=O)cc21 [Example 40]", "CHEAL herbicidal rating": 9.0}
{"MOLECULE": "Cc1ccc(-n2nnc3cc(F)c(-n4c(=O)cc(C(F)(F)F)n(C)c4=O)cc32)cc1C [Example 23]", "CHEAL herbicidal rating": 0.0}
{"MOLECULE": "COc1ccccc1-n1nnc2cc(F)c(-n3c(=O)cc(C(F)(F)F)n(C)c3=O)cc21 [Example 16]", "CHEAL herbicidal rating": 9.0}
{"MOLECULE": "Cc1ccccc1-n1nnc2cc(F)c(-n3c(=O)cc(C(F)(F)F)n(C)c3=O)cc21 [Example 20]", "CHEAL herbicidal rating": 9.0}
{"MOLECULE": "CCc1ccc(-n2nnc3cc(F)c(-n4c(=O)cc(C(F)(F)F)n(C)c4=O)cc32)cc1COC [Example 28]", "CHEAL herbicidal rating": 3.0}
{"MOLECULE": "CC(C)c1ccc(-n2nnc3cc(F)c(-n4c(=O)cc(C(F)(F)F)n(C)c4=O)cc32)cc1 [Example 21]", "CHEAL herbicidal rating": 9.0}
{"MOLECULE": "CCc1ccccc1-n1nnc2cc(F)c(-n3c(=O)cc(C(F)(F)F)n(C)c3=O)cc21 [Example 25]", "CHEAL herbicidal rating": 9.0}

====

# System: GLXMAW Soybean, Williams
# METHOD DESCRIPTION: Preemergence herbicidal evaluation, GLXMAW
# Type: in vivo, Glycine max, (L.) Merr. cv Williams
# Set-up: scale not given here
# SETUP CONDITIONS: preemergence, rate 0.032 kg/ha
Reported GLXMAW herbicidal rating values are given for each entry in this list.
EXPERIMENTAL READOUT: GLXMAW herbicidal rating

{"MOLECULE": "CC(C)c1ccc(-n2nnc3cc(F)c(-n4c(=O)cc(C(F)(F)F)n(C)c4=O)cc32)cc1 [Example 21]", "TEST RESULT": 0.0}
{"MOLECULE": "Cc1ccc(OCC(=O)O)cc1-n1nnc2cc(F)c(-n3c(=O)cc(C(F)(F)F)n(C)c3=O)cc21 [Example 37]", "TEST RESULT": 0.0}
{"MOLECULE": "Cc1ccccc1-n1nnc2cc(F)c(-n3c(=O)cc(C(F)(F)F)n(C)c3=O)cc21 [Example 20]", "TEST RESULT": 0.5}
{"MOLECULE": "C#CCOC(=O)COc1ccc(C)cc1-n1nnc2cc(F)c(-n3c(=O)cc(C(F)(F)F)n(C)c3=O)cc21 [Example 40]", "TEST RESULT": 0.0}
{"MOLECULE": "C=CCOc1ccc(C)cc1-n1nnc2cc(F)c(-n3c(=O)cc(C(F)(F)F)n(C)c3=O)cc21 [Example 42]", "TEST RESULT": 3.0}
{"MOLECULE": "Cc1ccc(O)cc1-n1nnc2cc(F)c(-n3c(=O)cc(C(F)(F)F)n(C)c3=O)cc21 [Example 32]", "TEST RESULT": 0.0}
{"MOLECULE": "Cc1cc(O)ccc1-n1nnc2cc(F)c(-n3c(=O)cc(C(F)(F)F)n(C)c3=O)cc21 [Example 33]", "TEST RESULT": 0.0}

Where do the numbers come from? From patent US20020111274A1.
